- test.system: Human GPR119 (Homo sapiens, UniProt Q8TDV5)
- Construct: host or cells: HEK293 (ATCC)
- Sequence (Q8TDV5 whole entry): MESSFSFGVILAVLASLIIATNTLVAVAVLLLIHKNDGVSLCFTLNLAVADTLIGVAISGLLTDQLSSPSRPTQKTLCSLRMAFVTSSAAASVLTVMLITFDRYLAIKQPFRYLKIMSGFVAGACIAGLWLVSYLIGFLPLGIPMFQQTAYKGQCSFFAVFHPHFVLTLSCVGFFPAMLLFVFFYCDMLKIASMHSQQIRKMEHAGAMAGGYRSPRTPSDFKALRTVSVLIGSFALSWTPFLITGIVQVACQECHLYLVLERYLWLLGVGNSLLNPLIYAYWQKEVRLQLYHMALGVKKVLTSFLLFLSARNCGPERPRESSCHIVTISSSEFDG
- test.protocol: Human GPR119 activation assay (cAMP, HTRF)
- Format: cell-based
- settings: 1 h; 1 nM; HEK293 cells transiently expressing human GPR119; relative to maximum effect of OEA; read-out: hGPR119 activation ability (cAMP assay) Relative Response % vs OEA
Readings of Emax at 0.001 µM for the listed compounds
parameter: Emax at 0.001 µM

{"columns": ["compound", "recorded.result"],
 "data": [
  ["CCCc1cnc(N2CCC(CCCOc3cc(F)c(-c4nnc(C(C)C)s4)c(F)c3)CC2)nc1 [Example 61]", "98.1%"],
  ["CCCCCc1cnc(N2CCC(CCCOc3cc(F)c(-c4nnc(C(C)C)s4)c(F)c3)CC2)nc1 [Example 62]", "88.8%"],
  ["CCCc1nc(-c2c(F)cc(OCCCC3CCN(c4ncc(CC)cn4)CC3)cc2F)no1 [Example 14]", "96%"],
  ["CCc1nnc(-c2c(F)cc(OCCCC3CCN(c4nc(C(C)C)no4)CC3)cc2F)o1 [Example 56]", "265%"],
  ["CCc1nc(-c2c(F)cc(OCCCC3CCN(c4ncc(-c5noc(CC(C)C)n5)cn4)CC3)cc2F)no1 [Example 31]", "59.4%"],
  ["CCc1cnc(N2CCC(CCCOc3cc(F)c(-c4nc(CC)cs4)c(F)c3)CC2)nc1 [Example 66]", "95.6%"],
  ["CCc1cnc(N2CCC(CCCOc3cc(F)c(-c4nnc(C(C)C)o4)c(F)c3)CC2)nc1 [Example 44]", "493%"],
  ["CCc1cnc(N2CCC(CCCOc3cc(F)c(-c4noc(C)n4)c(F)c3)CC2)nc1 [Example 13]", "49.4%"]
]}
